test system: Echinochloa crus-galli (ECHCG); test: Post-emergence herbicidal action against Echinochloa crus-galli; assay type: in vivo; conditions: 1280 g/ha; rated visually after about 3 weeks vs untreated controls; 100% = plants have died, 0% = like control plants
Answer each item with its documented Post-emergence action against Echinochloa crus-galli (ECHCG).
Hi! Could you send only the number? It should be in %, unit omitted.

Respond only with Post-emergence action against Echinochloa crus-galli (ECHCG) recorded for COc1cccc(Cc2c(C)cc(C)nc2Oc2ncc(F)cn2)c1 100

Respond only with Post-emergence action against Echinochloa crus-galli (ECHCG) recorded for Cc1cc(C)c(Cc2ccc(F)cc2F)c(Oc2ncc(F)cn2)n1 100

Respond only with Post-emergence action against Echinochloa crus-galli (ECHCG) recorded for Fc1cnc(Oc2ncccc2Sc2cccc(Cl)c2)nc1 100

Respond only with Post-emergence action against Echinochloa crus-galli (ECHCG) recorded for Cc1ccnc(Oc2ncccn2)c1Sc1cccc(Cl)c1 100

Respond only with Post-emergence action against Echinochloa crus-galli (ECHCG) recorded for Cc1cc(C)c(Cc2ccccc2)c(Oc2ncc(F)cn2)n1 90

Respond only with Post-emergence action against Echinochloa crus-galli (ECHCG) recorded for Cc1ccc(Oc2ccc(Cl)cc2)c(Oc2ncc(Cl)cn2)n1 90

Respond only with Post-emergence action against Echinochloa crus-galli (ECHCG) recorded for Cc1cc(C)c(Cc2ccc(F)cc2)c(Oc2ncc(F)cn2)n1 100

Respond only with Post-emergence action against Echinochloa crus-galli (ECHCG) recorded for COc1cc(Cc2c(C)cc(C)nc2Oc2ncc(F)cn2)ccc1F 100

Respond only with Post-emergence action against Echinochloa crus-galli (ECHCG) recorded for Cc1ccnc(Oc2ncccn2)c1Sc1ccccc1 100

Respond only with Post-emergence action against Echinochloa crus-galli (ECHCG) recorded for Cc1ccc(Oc2ccccc2)c(Oc2ncc(Cl)cn2)n1 90

Respond only with Post-emergence action against Echinochloa crus-galli (ECHCG) recorded for Cc1ccnc(Oc2ncccn2)c1Sc1ccc(F)cc1F 90

Respond only with Post-emergence action against Echinochloa crus-galli (ECHCG) recorded for Cc1ccc(Oc2ccc(Cl)cc2)c(Oc2ncc(F)cn2)n1 100

====

system: Stellaria media (STEME); assay: Post-emergence herbicidal action against Stellaria media; type: in vivo; details: 1280 g/ha; rated visually after about 3 weeks vs untreated controls; 100% = plants have died, 0% = like control plants
reported.property: Post-emergence action against Stellaria media (STEME)
Could you kindly put the unit after your number?

Respond only with Post-emergence action against Stellaria media (STEME) recorded for Cc1cc(C)c(Cc2ccccc2)c(Oc2ncc(F)cn2)n1 100%

Respond only with Post-emergence action against Stellaria media (STEME) recorded for COc1cccc(Cc2c(C)cc(C)nc2Oc2ncc(F)cn2)c1 100%

Respond only with Post-emergence action against Stellaria media (STEME) recorded for Fc1cnc(Oc2ncccc2Sc2ccc(F)cc2F)nc1 100%

Respond only with Post-emergence action against Stellaria media (STEME) recorded for Fc1cnc(Oc2ncccc2Sc2cccc(Cl)c2)nc1 100%

Respond only with Post-emergence action against Stellaria media (STEME) recorded for Cc1cc(C)c(Cc2ccc(C)c(F)c2)c(Oc2ncc(F)cn2)n1 100%

Respond only with Post-emergence action against Stellaria media (STEME) recorded for COc1cc(Cc2ccc(C)nc2Oc2ncc(Cl)cn2)ccc1F 90%

Respond only with Post-emergence action against Stellaria media (STEME) recorded for Cc1ccc(Cc2ccc(F)cc2F)c(Oc2ncccn2)n1 90%

====

system: Abutilon theophrasti (ABUTH); test: Post-emergence herbicidal action against Abutilon theophrasti; format: in vivo; conditions: 1280 g/ha; rated visually after about 3 weeks vs untreated controls; 100% = plants have died, 0% = like control plants
reported.property: Post-emergence action against Abutilon theophrasti (ABUTH) (%)
Hi! Could you send only the number? It should be in %, unit omitted.

Give Post-emergence action against Abutilon theophrasti (ABUTH) for Cc1ccc(Oc2ccccc2)c(Oc2ncc(Cl)cn2)n1 tested on Abutilon theophrasti (ABUTH). 100

Give Post-emergence action against Abutilon theophrasti (ABUTH) for Cc1cc(C)c(Cc2ccc(Cl)cc2)c(Oc2ncc(F)cn2)n1 tested on Abutilon theophrasti (ABUTH). 90

Give Post-emergence action against Abutilon theophrasti (ABUTH) for Cc1ccnc(Oc2ncccn2)c1Sc1ccccc1 tested on Abutilon theophrasti (ABUTH). 100

Give Post-emergence action against Abutilon theophrasti (ABUTH) for Cc1cc(C)c(Cc2ccc(Cl)c(F)c2)c(Oc2ncc(F)cn2)n1 tested on Abutilon theophrasti (ABUTH). 90

Give Post-emergence action against Abutilon theophrasti (ABUTH) for COc1cccc(Cc2c(C)cc(C)nc2Oc2ncc(F)cn2)c1 tested on Abutilon theophrasti (ABUTH). 100

Give Post-emergence action against Abutilon theophrasti (ABUTH) for Cc1ccc(Cc2ccc(F)cc2F)c(Oc2ncc(F)cn2)n1 tested on Abutilon theophrasti (ABUTH). 90

Give Post-emergence action against Abutilon theophrasti (ABUTH) for Fc1cnc(Oc2ncccc2Sc2ccc(F)cc2F)nc1 tested on Abutilon theophrasti (ABUTH). 100

Give Post-emergence action against Abutilon theophrasti (ABUTH) for Cc1cc(C)c(Cc2ccc(F)cc2F)c(Oc2ncc(F)cn2)n1 tested on Abutilon theophrasti (ABUTH). 100

Give Post-emergence action against Abutilon theophrasti (ABUTH) for Cc1ccc(Oc2ccccc2)c(Oc2ncc(F)cn2)n1 tested on Abutilon theophrasti (ABUTH). 90

Give Post-emergence action against Abutilon theophrasti (ABUTH) for Cc1cc(C)c(Cc2ccccc2)c(Oc2ncc(F)cn2)n1 tested on Abutilon theophrasti (ABUTH). 100

Give Post-emergence action against Abutilon theophrasti (ABUTH) for Cc1ccc(Cc2c(C)cc(C)nc2Oc2ncc(F)cn2)cc1 tested on Abutilon theophrasti (ABUTH). 90

Give Post-emergence action against Abutilon theophrasti (ABUTH) for COc1c(F)ccc(Cc2c(C)cc(C)nc2Oc2ncc(F)cn2)c1F tested on Abutilon theophrasti (ABUTH). 100

Give Post-emergence action against Abutilon theophrasti (ABUTH) for COc1cc(Oc2ccc(C)nc2Oc2ncc(F)cn2)ccc1F tested on Abutilon theophrasti (ABUTH). 90

Give Post-emergence action against Abutilon theophrasti (ABUTH) for Cc1ccc(Cc2ccccc2)c(Oc2ncc(Cl)cn2)n1 tested on Abutilon theophrasti (ABUTH). 90

Give Post-emergence action against Abutilon theophrasti (ABUTH) for COc1cc(Cc2c(C)cc(C)nc2Oc2ncc(F)cn2)ccc1F tested on Abutilon theophrasti (ABUTH). 100

Give Post-emergence action against Abutilon theophrasti (ABUTH) for Cc1cc(C)c(Cc2ccc(F)cc2)c(Oc2ncc(F)cn2)n1 tested on Abutilon theophrasti (ABUTH). 100

Give Post-emergence action against Abutilon theophrasti (ABUTH) for Cc1cc(C)c(Cc2ccc(C)c(F)c2)c(Oc2ncc(F)cn2)n1 tested on Abutilon theophrasti (ABUTH). 90

Give Post-emergence action against Abutilon theophrasti (ABUTH) for Cc1ccnc(Oc2ncccn2)c1Sc1ccc(F)cc1F tested on Abutilon theophrasti (ABUTH). 90

====

Answer each item with its documented Pre-emergence action against Setaria viridis (SETVI).
system: Setaria viridis (SETVI); assay: Pre-emergence herbicidal action against Setaria viridis; type: in vivo; conditions: 1280 g/ha; scored visually after about 3 weeks vs untreated controls; 100% = plants have died, 0% = like control plants
Could you kindly put the unit after your number?

Give Pre-emergence action against Setaria viridis (SETVI) for Cc1ccc(Oc2ccccc2)c(Oc2ncccn2)n1 [Example I-522] tested on Setaria viridis (SETVI). 100%

Give Pre-emergence action against Setaria viridis (SETVI) for COc1cc(Oc2ccc(C)nc2Oc2ncccn2)ccc1F [Example I-531] tested on Setaria viridis (SETVI). 100%

Give Pre-emergence action against Setaria viridis (SETVI) for COc1cc(Oc2ccc(C)nc2Oc2ncc(F)cn2)ccc1F [Example I-520] tested on Setaria viridis (SETVI). 90%

Give Pre-emergence action against Setaria viridis (SETVI) for Fc1cnc(Oc2ncccc2Sc2cccc(Cl)c2)nc1 [Example I-158] tested on Setaria viridis (SETVI). 90%

====

test system: Setaria viridis (SETVI); test: Pre-emergence herbicidal action against Setaria viridis; format: in vivo; conditions: 1280 g/ha; scored visually after about 3 weeks vs untreated controls; 100% = plants have died, 0% = like control plants
reported.property: Pre-emergence action against Setaria viridis (SETVI) (%)
Hi! Could you send only the number? It should be in %, unit omitted.

Respond only with Pre-emergence action against Setaria viridis (SETVI) recorded for Fc1cnc(Oc2ncccc2Sc2ccc(F)cc2F)nc1 [Example I-156] 90

Respond only with Pre-emergence action against Setaria viridis (SETVI) recorded for Cc1ccc(Cc2ccc(C)nc2Oc2ncc(Cl)cn2)cc1 [Example I-405] 100

Respond only with Pre-emergence action against Setaria viridis (SETVI) recorded for Cc1cc(C)c(Cc2ccc(F)cc2)c(Oc2ncc(F)cn2)n1 [Example I-479] 100
